B1: CPEB3 Ribozyme (parent)
chain: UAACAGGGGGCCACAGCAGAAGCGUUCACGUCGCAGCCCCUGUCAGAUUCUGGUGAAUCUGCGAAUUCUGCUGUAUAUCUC

Variants of: B1
Experiment: self-cleavage, relative activity (ratio to wild type); higher = more cleavage; in vitro, sequencing
For each record, write down the corresponding self-cleavage.

The cases that follow already have their self-cleavage on record.
* U49A C59U | 0.19
* A35G A77C | 1.27
* G22U U41A | 0.17
* G19A U72C | 0.18
* G22U U26A | 0.26

Respectfully, I request self-cleavage for each entry included below.
1. U72A U76G
2. A18C A45U
3. C50A A64G

Data returned:
[0.54, 0.1, 0.73]

Respectfully, I request self-cleavage for each entry included below.
1. A45G C59G
2. C37U U80C
3. G22A G52U
4. C23U U41C
5. A18G U67A
6. G22A A45G
7. G9U U74C

Data returned:
1: 0.2; 2: 0.74; 3: 0.38; 4: 0.27; 5: 0.31; 6: 0.14; 7: 0.32
